Tested on: DMS-114
Assay: NCI tumour cell line growth inhibition, 48 h
Activity calls are given as the source filed them. Rule as the data show it: active = GI50 up to about 1.1 µM and inactive = higher.
endpoint.name: GI50

molecule: N#CC1C[C@@H]2CC3(CCC2CN1C(=O)c1ccccc1)OCCO3 (stereo partly drawn)
endpoint.name: GI50
result: > 100 µM (inactive)

molecule: CN/N=C(/CCN1CCCC1)CC(c1ccccc1)c1c(O)c2ccccc2oc1=O (stereo not drawn)
endpoint.name: GI50
result: > 100 µM (inactive)

molecule: NC1=NNC(=O)c2nnc3c(C(=O)O)cnn3c2S1
endpoint.name: GI50
result: > 100 µM (inactive)

Each molecule below has a recorded value; state its GI50.
1. COc1ccc2c(c1)c[n+](C)c1c3cc(OC)c(OC)cc3ccc21
2. CC(=O)N1c2ccccc2C2=CC3C4C(=O)N(c5ccccc5)C(=O)C4C21C1C(=O)N(c2ccccc2)C(=O)C31 (stereo not drawn)
3. O=C1CCSC2=C1SCc1sccc12
4. Nc1nc(NC2C=C(CO)C(O)C2O)c([N+](=O)[O-])c(=O)[nH]1 (stereo not drawn)
5. COc1ccccc1C1c2cc3c(cc2OC(O)(CO)C1C(=O)O)OCO3.COc1ccccc1C1c2cc3c(cc2OC2(O)COC(=O)C12)OCO3 (stereo not drawn)

Output:
["1.98 µM (inactive)", "4.27 µM (inactive)", "> 100 µM (inactive)", "> 100 µM (inactive)", "> 100 µM (inactive)"]

----------
Test system: Hs-578T
Assay: NCI tumour cell line growth inhibition, 48 h
Active and inactive are the calls of the source. No stated cut-off is given here; in the data, active = GI50 up to about 1.1 µM and inactive = higher.
Select the matching outcome among true (1) = active, false (0) = inactive

molecule: N#CCCN(CCC#N)c1ccc(/C=C2\N=C(c3ccccc3)N(c3ccc(C(=O)O)cc3)C2=O)cc1
label.value: false (0)
//
molecule: NC(=O)c1ncn2c(=O)n(CCCl)nnc12 [MITOZOLOMIDE]
label.value: false (0)
//
molecule: CN(N=O)c1nc2c(C(N)=O)ncn2s1
label.value: false (0)

Task: Record request — test call for NNC(=O)CS(=O)(=O)Nc1ncccn1
Output: false (0)

Task: Record request — test call for Nc1ccc2c(c1)N(C(=O)c1cc3cc(NC(=O)c4cc5ccccc5o4)ccc3[nH]1)CC2CCl (configuration not stated)
Output: true (1)

Task: Record request — test call for CC12c3c4ccc(C=O)c3Oc3ccc(C=O)c(c31)Oc1ccc(C=O)c(c12)O4
Output: false (0)

Task: Record request — test call for CC(C)N1[C@@H]2CCCC[C@H]2N(C(C)C)[PH]1=O
Output: false (0)

----------
Hi there, I'd appreciate the recorded GI50 for every entry that follows.
Tested on: RPMI-8226
Experiment: NCI tumour cell line growth inhibition, 48 h
Calls of active or inactive are those of the source. Rule as the data show it: active = GI50 up to about 1.1 µM and inactive = higher.

compound: O=S(=O)(c1ccc(/N=C2\NC(c3ccc(O)cc3)(c3ccccc3O)c3ccccc32)cc1)c1ccc(/N=C2/NC(c3ccc(O)cc3)(c3ccccc3O)c3ccccc32)cc1 (configuration not stated)
experimental.system: RPMI-8226
result: 5.22 µM (inactive)
//
compound: CC(C)=CCNc1nc(Cl)nc2[nH]cnc12
experimental.system: RPMI-8226
result: > 100 µM (inactive)

Each compound below has a recorded value; state its GI50.
1. COc1cc(NS(C)(=O)=O)ccc1NCc1c2ccccc2nc2ccccc12
2. CN(/N=C/c1ccc(Cl)c(Cl)c1)C1=NCCN1
3. C#CCCCOc1ncccn1
4. CCN1CCC(O)(c2ccc(O)cc2)C(C(=O)c2ccc(O)cc2)C1 (configuration not stated)
5. Nc1nc(NCc2ccccc2)cc(NCc2ccccc2)n1
6. COc1ccc(NC(=O)CC(=O)N2N=C(N(CCC#N)c3cccc(C)c3)CC2c2ccccc2)cc1 (configuration not stated)
7. O=C1NC(N2CCOCC2)=N/C1=C\c1ccc(Cl)cc1

Output:
22.5 µM (inactive)
24.8 µM (inactive)
> 100 µM (inactive)
3.21 µM (inactive)
3.06 µM (inactive)
> 100 µM (inactive)
> 100 µM (inactive)

----------
Test system: NCI-H460
Experiment: NCI tumour cell line growth inhibition, 48 h
Active and inactive are the calls of the source. Rule as the data show it: active = GI50 up to about 1.1 µM and inactive = higher.
endpoint.name: GI50

Please review the following examples before continuing.
structure.smiles.string: CC(C)=CCC[C@@H](C)C1=C(O)C(=O)C(C)=C(Nc2ccccc2I)C1=O
result: 10.1 µM (inactive)
//
structure.smiles.string: CCCCCCc1cc2cc(C(=O)Nc3ccccc3)c(=N)oc2cc1O
result: 3.24 µM (inactive)

Proceed to the following item.
Task: Provide GI50, recorded with NCI-H460, of Cc1oc2nc1C(=O)NCc1nc(cs1)C(=O)N[C@H](C(C)C)c1nc(cs1)C(=O)N[C@H]2C
Output: 66.7 µM (inactive)

----------
Tested on: LOX IMVI
Test: NCI tumour cell line growth inhibition, 48 h
Active and inactive are the calls of the source. Rule as the data show it: active = GI50 up to about 1.1 µM and inactive = higher.
Select the matching outcome among true = active, false = inactive

Example cases with answers are listed next.
compound: Cn1c(S)nnc1CNc1ccc(-c2nnc(S)n2C)cc1
label.value: false

compound: CC(C)=C[C@H]1C[C@H](C)[C@H]2CC[C@H](C)c3c2c1c(C)c1ncoc31
label.value: false

compound: CC(=O)OC1CCC2(C)C(=CC(C3C=C4CC(OC(C)=O)CCC4(C)C4=C3C3CC5OC6(CCC(C)CO6)C(C)C5C3(C)CC4)C3=C2CCC2(C)C3CC3OC4(CCC(C)CO4)C(C)C32)C1 (centres undefined)
label.value: false

compound: C=CCCCCNC(=O)C[C@@H]1C2=C(CC[C@H]1O[Si](C)(C)C(C)(C)C)N1C(=O)CCC/C=C\C1C2 (some centres undefined)
label.value: false

compound: Cc1nc2sc(C(=O)c3ccc(Cl)cc3)c(N)c2c(-c2ccccc2Cl)c1C(=O)Nc1ccccc1
label.value: false

compound: Oc1c(CN2CCN(c3ccccc3)CC2)cc(Br)c2cccnc12
label.value: true

Task: Record request — test call for O=C1NC(O)n2c(=O)[nH]c(=O)n21 (centres undefined)
Output: false

Task: Record request — test call for C=C=C(Sc1ccccc1)C(C)(C)OC(C)=O
Output: false

Task: Record request — test call for O=S1(=O)c2ccccc2NC(c2ccc3ccccc3c2)CC1c1ccccc1F (centres undefined)
Output: false

Task: Record request — test call for Nc1cccc2cc(S(=O)(=O)Nc3ccc(C(=O)O)cc3)ccc12
Output: false

Task: Record request — test call for CC(=O)OCC1OC(N2C(c3ccccc3)=CC(c3ccco3)C(C#N)=C2S)C(OC(C)=O)C(OC(C)=O)C1OC(C)=O (centres undefined)
Output: false

----------
The following compounds have recorded GI50 on HCT-15.

Please review the following examples before continuing.
compound: NC(Cc1ccccc1)C(=O)OCN1C(=O)C2C3C=CC(C2C1=O)C1C2C(=O)N(COC(=O)C(N)Cc4ccccc4)C(=O)C2C31 (stereo not drawn)
result: 17.8 µM

compound: CCOC(=O)c1c(C)nc2c3ccccc3c(C#N)c(C)n12
result: > 100 µM

compound: Cc1ccc2c(c1C)C(=O)/C(=C/c1cccc(C)c1C(=O)O)C2
result: 51.3 µM

Each compound below has a recorded value; state its GI50.
1. CCOc1ccc(NC(=O)C(=O)CC(=O)C2=C(C)Nc3ccccc3S2)cc1
2. O=[N+]([O-])c1ccc(-c2nc3ccccc3o2)cc1
3. COc1ccc(C(=O)/C=C/c2ccc(OCCSCCCCCCCCCCSCCOc3ccc(/C=C/C(=O)c4ccc(OC)cc4)cc3)cc2)cc1
4. CCCC(=O)N[C@H]1CCc2cc(OC)c(OC)c(OC)c2-c2ccc(SC)c(=O)cc21

Output:
1. > 50 µM
2. > 100 µM
3. > 100 µM
4. 0.0109 µM

Task: Provide GI50, recorded with HCT-15, of O=S(=O)(/C=C/CS(=O)(=O)c1ccccc1)c1ccccc1
Output: 17.5 µM

----------
System: MCF7
Experiment: NCI tumour cell line growth inhibition, 48 h
Calls of active or inactive are those of the source. Cut-off read from the data, not from the text of the source: active = GI50 up to about 1.1 µM and inactive = higher.
Select the matching outcome among true = active, false = inactive

Example cases with answers are listed next.
molecule: O=c1c2cc([N+](=O)[O-])ccc2n(Cc2ccccc2)n1Cc1ccccc1
label.value: false
--
molecule: Cc1cc2[nH]c3c(C#N)c(-c4ccccc4)c(/C=N/c4ccc(F)cc4)c(=O)n3c2cc1C
label.value: false
--
molecule: COC(=O)[C@H](C)N1C(=O)N[C@@H](C(C)C)C1=O
label.value: false
--
molecule: CCCCCCc1cc2cc(-c3cn4c(n3)sc3ccccc34)c(=O)oc2cc1O
label.value: false
--
molecule: O=C(O)c1cccc2cccc(-c3cccc4cccc(C(=O)O)c34)c12
label.value: false

Task: Record request — test call for Cc1c(C#N)c2ccccc2c2nc3ccccc3n12
Output: false

Task: Record request — test call for Cc1ccc2c(c1)CN(C(=O)CCC(=O)OCc1ccccc1)c1ccc(C)cc1CN2C(=O)CCC(=O)OCc1ccccc1
Output: false

Task: Record request — test call for C=C(C)[C@H]1C2=CC(C)=C(O2)[C@@H](O[C@@H]2c3oc(cc3C)[C@H](C(=C)C)[C@H]3C=C(CC[C@H]2C(=C)C)C(=O)O3)[C@H](C(=C)C)CCC2=C[C@H]1OC2=O
Output: false

Task: Record request — test call for CC(C)=C[C@H]1C[C@H](C)[C@H]2CC[C@H](C)c3c2c1c(C)c1ncoc31
Output: false

Task: Record request — test call for O=C1NC(=O)C(c2c[nH]c3cc(Br)ccc23)=C1c1cnc[nH]1
Output: false

Task: Record request — test call for COc1ccc(/N=C2\C(=N/c3ccc(OC)cc3)N(S(=O)(=O)c3ccccc3)C(=S)N2c2ccc(OC)cc2)cc1
Output: false

Task: Record request — test call for CCOC(=O)CC(=O)C(=O)NN=C1NCCCN1
Output: false

Task: Record request — test call for Clc1ccccc1C(Nc1cnccn1)Nc1cnccn1
Output: false

Task: Record request — test call for O=C(C1=C(C(=O)c2ccccc2)SC2(S1)C(C(=O)c1ccccc1)=C(C(=O)c1ccccc1)Sc1c2ssc1=O)c1ccccc1
Output: false

Task: Record request — test call for CSC1(CC(=O)N2CCCCC2)C(=O)Nc2ccccc21 (stereo not given)
Output: false

Task: Record request — test call for CC1Cn2c(nc3ccccc32)NC1=O (stereo not given)
Output: false

Task: Record request — test call for CC(=O)OCC1OC(N2C(S)=C(C#N)C(c3ccco3)C(C(C)=O)=C2c2ccccc2)C(OC(C)=O)C(OC(C)=O)C1OC(C)=O (stereo not given)
Output: false

Task: Record request — test call for CCc1ccc2nc(-c3ccc(O)cc3)sc2c1
Output: false

Task: Record request — test call for COC(=O)/C=C1\C(=O)Nc2ccc(Br)cc21
Output: false
